- Experiment Notes: Single-dose pharmacokinetics after IV bolus administration of EK-ECP
- Assay type: in vivo, male Sprague–Dawley rats
- Study Conditions: male, Sprague-Dawley, rat, in vivo; IV bolus 10 mg/kg EK-ECP; read-out: Mean clearance (Cl) (converted)
Readout Type: clearance

Input line: Consider the compound Oc1cc(O)cc(Oc2c(O)cc(O)c3c2Oc2c(cc(O)c(-c4c(O)cc5c(c4O)Oc4c(Oc6cc(O)cc(O)c6)c(O)cc(O)c4O5)c2O)O3)c1 and give its measured clearance.
Output line: 2.7 mL/min/kg

----------
- Experiment Notes: Single-dose pharmacokinetics after IV bolus administration of EK-ECP
- Assay type: in vivo, male Sprague–Dawley rats
- Study Conditions: male, Sprague-Dawley, rat, in vivo; IV bolus 10 mg/kg EK-ECP, mean (CV)
- Procedure: EK-ECP was administered to male Sprague–Dawley rats by either IV bolus (Group 1, 10 mg/kg) or oral gavage (Groups 2, 3 or 4, at 10, 100 or 1000 mg/kg, respectively) administration. Blood collection intervals were pre dose (0), and 0.25, 0.5, 1, 2, 4, 6, 8, 12, 24 and 36 h post dose. Plasma samples were analyzed for concentrations of 8,8′-bieckol, dieckol, and PFF-A; all pre-dose sample results were less than the lower limit of quantitation (LLOQ < 1 ng/mL). […]
Readout Type: MRT last (h)
Numeric only. Scale: h

Input line: Consider the molecule Oc1cc(O)cc(Oc2c(O)cc(O)c3c2Oc2c(cc(O)c(-c4c(O)cc5c(c4O)Oc4c(Oc6cc(O)cc(O)c6)c(O)cc(O)c4O5)c2O)O3)c1 and give its measured MRT last.
Output line: 1.88

----------
- Experiment Notes: Single-dose pharmacokinetics after IV bolus administration of EK-ECP
- Assay type: in vivo, male Sprague–Dawley rats
- Study Conditions: male, Sprague-Dawley, rat, plasma, iv, 10 mg/kg, IV bolus 10 mg/kg EK-ECP, mean (CV); read-out: Vz
Vd reference
Numeric only. Scale: L/kg

Input line: Consider the compound Oc1cc(O)cc(Oc2c(O)cc(O)c3c2Oc2c(O)cc4oc5c(Oc6cc(O)cc(O)c6)c(O)cc(O)c5c4c2O3)c1 and give its measured Vd.
Output line: 89.2

Input line: Another: Oc1cc(O)cc(Oc2c(O)cc(O)c3c2Oc2c(O)cc(Oc4c(O)cc(Oc5c(O)cc(O)c6c5Oc5c(O)cc(O)cc5O6)cc4O)cc2O3)c1
Output line: 3.35

----------
- Experiment Notes: Single-dose pharmacokinetics and bioavailability after oral gavage administration of EK-ECP
- Format: in vivo, male Sprague–Dawley rats
- Study Conditions: male, Sprague-Dawley, rat, in vivo; PO 1000 mg/kg EK-ECP (Group 4), mean (CV); PFF-A N = 1
Readout Type: Cmax

Input line: Consider the compound Oc1cc(O)cc(Oc2c(O)cc(O)c3c2Oc2c(cc(O)c(-c4c(O)cc5c(c4O)Oc4c(Oc6cc(O)cc(O)c6)c(O)cc(O)c4O5)c2O)O3)c1 [8,8′-bieckol] and give its measured Cmax.
Output line: 795 ng/mL

----------
- Experiment Notes: Single-dose pharmacokinetics and bioavailability after oral gavage administration of EK-ECP
- Format: in vivo, male Sprague–Dawley rats
- Study Conditions: male, Sprague-Dawley, rat, in vivo; PO 100 mg/kg EK-ECP, median (minimum-maximum)
Readout Type: Tmax

Input line: Consider the compound Oc1cc(O)cc(Oc2c(O)cc(O)c3c2Oc2c(cc(O)c(-c4c(O)cc5c(c4O)Oc4c(Oc6cc(O)cc(O)c6)c(O)cc(O)c4O5)c2O)O3)c1 [8,8′-bieckol] and give its measured Tmax.
Output line: 0.25 to 4 h
